Every entry's value here was drawn from the DeepSol protein solubility set.

assay: soluble on expression in E. coli; label from the status in PepcDB or PDB records

>  <Residue Sequence>
MTATPLYCAEPARLDTARRLCERFSLPLIKQRPADGYWLELGSERLELLTTGKHGAVYAEFVEGAARHRREQGGGRGQPVAKAVGLKGAKDLPHVADATAGLGRDSFVLATLGCRVTMVERSPVAAALLADALERAQRDETTRDIAARMTLVHANSRNWLAGLTEAQRPDVVFVDPMFPDTDKKSAAAKKDMQAFQQVIGDDMDSAELLAAAIAAARVRVVVKRPRLGAAIAGVKPSAVLDGKSTRFDLYVIKALASGLEHHHHHH

>  <soluble on expression in E. coli>
soluble

$$$$
>  <Residue Sequence>
MGHHHHHHSHMQEEEEESWSTSSDLTISISEDDLILESPEPQPNPGGKMEGEDGIEALKLIHAEQERVALSTEKNCILQTLSSPDSEKESSTNAPTREPGQTPDSDVPRAQVGQHVATLKEHDNSVKEEATALLRKALTEECGRRSAIHSSESSCSLPSILNDNSGIKEAKPAVWLNSVPTREQEVSSGCGDKSKKENVAADIPITETEAYQLLKKATLQDNTNQTENRFQKTDASVSHLSGLNIGSGAFETKTANKIASEASFSSSEGSPLSRHENKKKPVINLKSNALWDESDDSNSEIEAALRPRNHNTDDSDDFYD

>  <soluble on expression in E. coli>
soluble

$$$$
>  <Residue Sequence>
MAKKSTGFDHDPVRVLVAWNPSSHGAEAIECAAWLARTTNVTVQCVTAFLRPWPSSSGNKLGSKYKKWFKKEAFACEDAVKAAFSRAEIPTAMWADTVSVFCDGTNEAALLSEAAHKFGADIVLLGSEAAAPKGRFLAGSTADALLHSSPQPLGLTPRKPKLSKRGVTRVNFAYTGDATDNTSLIRTARLAAAWDVPLRVLALSPEGFGVPPISDTLELPEDLALEWRENTFAVLDRSRDTVHKAHPDVIVETEIGSGNGWSGAIESLKWKKGDLLCFGSTPLGAFERVFIGSQATEILPYVSVPVLMIPATTKVDKKSKK

>  <soluble on expression in E. coli>
soluble

$$$$

###

assay: soluble on expression in E. coli; label from the status in PepcDB or PDB records

>  <Residue Sequence>
MGSDKIHHHHHHMNNIIATILKYAGLEGKAVIPLKGATSSYVFRAGDSVFRIHTNPAWLEQEPDLVAHEVFALRATGRLGPDVENYQLTWEGEIPPWIQMTCLPGEVRLEPLNRAYLKQLAKTLVAIHQLPVPEARYQYAPYVTKRTVPFWAVQKEMWQRAVAEPPATSQQVRFIHRDFHPVNVLYESAEKYNVVDWINGCVGPIEADVAHCRLNLMLLESVEAADQFLAEYIAYSGFSYDRKWDLTAVFDFEPDTLNVYPGWKAYGKANISQGNVRERMENIVLKVYENDESGY

>  <soluble on expression in E. coli>
not soluble

$$$$
>  <Residue Sequence>
MGSDKIHHHHHHMLAQVPNTISLQQELTPLLQHEWLPHINQRDYHSGSQGGWDVLALRCAEEYHAAHPILQAFSISAANEWDNLPALESSPTLLDFIQSLACPVKSVRFMRLHAGAEIKPHRDQGLSLEQGEARLHLPLQTHDQLYFYVNDQRVPMQAGELWYINADQSHWVANKGSSARINLVIDCKVNSWLRELIHGAKIKA

>  <soluble on expression in E. coli>
not soluble

$$$$
